Origin of the recorded values: patent US8513287B2

# assay_text: physchem
# experimental_setup: 25 °C, pH 9, aqueous buffer
# Experimental: 3-(3-(4-(Pyridin-2-yloxymethyl)-benzyl)-isoxazol-5-yl)-pyridin-2-ylamine described in Reference Example 1, which is the parent compound, and the compound of Example 1 were compared for solubility in a Britton-Robinson buffer (ionic strength: 0.3) at 25° C.
reported_endpoint: solubility

// query Bench note: what solubility did Nc1c(-c2cc(Cc3ccc(COc4ccccn4)cc3)no2)ccc[n+]1COP(=O)([O-])O [Example 1] show?
// result > 21.1 mg/mL

###

# assay_text: Comparative test of solubility in water (Britton-Robinson buffer)
# experimental_setup: Britton-Robinson buffer, 25 °C, pH 8, aqueous buffer
reported_endpoint: solubility

// query Bench note: what solubility did Nc1ncccc1-c1cc(Cc2ccc(COc3ccccn3)cc2)no1 [Parent compound, reference compound] show?
// result < 100 µg/mL
